measurement-label: melting point

INSERT INTO assay_data (compound, result_value) VALUES
  ('O=C(O)c1ccc(C(=O)Nc2ccc3c(c2)CCC3)cc1 [Compound 36a]', '> 250 °C'),
  ('COC1Cc2ccc(NC(=O)c3ccc(C(=O)O)cc3)cc2C1 (stereo not drawn) [Compound 36f]', '> 250 °C'),
  ('COC1c2cc(NC(=O)c3ccc(C(=O)O)cc3)ccc2CC1C(C)C (stereo not drawn) [Compound 36o]', '> 250 °C');

Query: melting point; subject: CCCCOC1CCc2ccc(NC(=O)c3ccc(C(=O)O)cc3)cc21 (stereo not drawn) [Compound 36e]
> 250 °C

Query: melting point; subject: CC1=Cc2cc(NC(=O)c3ccc(C(=O)O)cc3)ccc2C1 [Compound 36i]
> 250 °C

Query: melting point; subject: CC(C)C1Cc2ccc(NC(=O)c3ccc(C(=O)O)cc3)cc2C1=O (stereo not drawn) [Compound 36l]
> 250 °C

Query: melting point; subject: CC(C)OC1CCc2ccc(NC(=O)c3ccc(C(=O)O)cc3)cc21 (stereo not drawn) [Compound 36d]
> 250 °C

Query: melting point; subject: CC(C)C1=Cc2cc(NC(=O)c3ccc(C(=O)O)cc3)ccc2C1 [Compound 36j]
> 250 °C

Query: melting point; subject: CC1Cc2ccc(NC(=O)c3ccc(C(=O)O)cc3)cc2C1=O (stereo not drawn) [Compound 36k]
> 250 °C

----------
Here the recorded pEC50 is given for each entry.
Biological target: RARα (RAR alpha LBD-GST) (Homo sapiens, UniProt P10276)
Construct: A mixture of 5 nM RAR alpha LBD-GST, 5 nM TbAnti-GST antibody, 50 nM Fluorescein-D22 was added to the wells
Sequence (P10276 183-417 limits assumed): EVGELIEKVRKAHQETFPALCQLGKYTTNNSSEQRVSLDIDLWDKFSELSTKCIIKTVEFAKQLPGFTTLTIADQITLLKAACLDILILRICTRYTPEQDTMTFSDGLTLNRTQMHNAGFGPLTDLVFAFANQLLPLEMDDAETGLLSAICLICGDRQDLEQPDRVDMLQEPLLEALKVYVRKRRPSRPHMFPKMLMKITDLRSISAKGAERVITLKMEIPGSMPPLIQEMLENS
Assay: Receptor binding assay (LanthaScreen TR-FRET RAR alpha Coactivator Assay)
Conditions: 1 h incubation, AM80 positive control, read-out: RARα binding affinity EC50
As a rule, pEC50 stands for the negative log10 of the concentration, concentration in M.

INSERT INTO measurements (compound, measurement_label, result_value) VALUES
  ('CC1=Cc2cc(NC(=O)c3ccc(C(=O)O)cc3)ccc2C1 [Compound 36i]', 'pEC50', 7.85),
  ('CC(C)C1Cc2ccc(NC(=O)c3ccc(C(=O)O)cc3)cc2C1 (centres unmarked) [Compound 36h]', 'pEC50', 7.37),
  ('CCOC1c2cc(NC(=O)c3ccc(C(=O)O)cc3)ccc2CC1C (centres unmarked) [Compound 36n]', 'pEC50', 6.84);

Note: attention shifts to another entry.
Query: pEC50; subject: CCCCOC1CCc2ccc(NC(=O)c3ccc(C(=O)O)cc3)cc21 (centres unmarked) [Compound 36e]
7.83
